System: TRAP1 enzyme (Homo sapiens)
Experiment: ADP Glo assay of TRAP1 ATPase activity
Format: biochemical
Stated conditions: read-out: ADP GLO DRC: Mean Emax
Listed below: Emax values for each entry.

Before answering, review these 3 worked examples.
O=C(c1ccccc1)c1cccnc1C(=O)Nc1ccc(F)c(S(=O)(=O)Nc2ccc(Cl)cc2)c1	200 to 300%
Cn1ncc(C(=O)Nc2ccc(F)c(S(=O)(=O)Nc3ccc(Cl)cc3)c2)c1-n1cccc1	160 to 199%
CCN1CCN(c2ccc(C(=O)Nc3ccc(OC)c(S(=O)(=O)Nc4c(C)cccc4C)c3)cc2)CC1	123 to 159%

Suppose we examine the compound COc1ccc(NC(=O)c2ccnn2-c2ccccc2)cc1S(=O)(=O)Nc1c(C)cccc1C ; what Emax value has been reported? 200 to 300%

Suppose we examine the compound COc1ccc(NC(=O)c2cc(-n3ccnc3)ccn2)cc1S(=O)(=O)Nc1c(C)cccc1C ; what Emax value has been reported? 200 to 300%

Suppose we examine the compound COc1ccc(NC(=O)c2cc3cnccc3s2)cc1S(=O)(=O)Nc1c(C)cccc1C ; what Emax value has been reported? 123 to 159%

Suppose we examine the compound COc1ccc(NC(=O)c2cc(C)n(C)c2)cc1S(=O)(=O)Nc1c(C)cccc1C ; what Emax value has been reported? 160 to 199%

Suppose we examine the compound COc1ccc(NC(=O)c2ccnc(-c3ccccc3)c2)cc1S(=O)(=O)Nc1c(C)cccc1C ; what Emax value has been reported? 200 to 300%

Suppose we examine the compound COc1ccc(NC(=O)c2ncn(Cc3ccccc3)n2)cc1S(=O)(=O)Nc1c(C)cccc1C ; what Emax value has been reported? > 300%

###

System: UniProt Q12931
Sequence (Q12931 60-704): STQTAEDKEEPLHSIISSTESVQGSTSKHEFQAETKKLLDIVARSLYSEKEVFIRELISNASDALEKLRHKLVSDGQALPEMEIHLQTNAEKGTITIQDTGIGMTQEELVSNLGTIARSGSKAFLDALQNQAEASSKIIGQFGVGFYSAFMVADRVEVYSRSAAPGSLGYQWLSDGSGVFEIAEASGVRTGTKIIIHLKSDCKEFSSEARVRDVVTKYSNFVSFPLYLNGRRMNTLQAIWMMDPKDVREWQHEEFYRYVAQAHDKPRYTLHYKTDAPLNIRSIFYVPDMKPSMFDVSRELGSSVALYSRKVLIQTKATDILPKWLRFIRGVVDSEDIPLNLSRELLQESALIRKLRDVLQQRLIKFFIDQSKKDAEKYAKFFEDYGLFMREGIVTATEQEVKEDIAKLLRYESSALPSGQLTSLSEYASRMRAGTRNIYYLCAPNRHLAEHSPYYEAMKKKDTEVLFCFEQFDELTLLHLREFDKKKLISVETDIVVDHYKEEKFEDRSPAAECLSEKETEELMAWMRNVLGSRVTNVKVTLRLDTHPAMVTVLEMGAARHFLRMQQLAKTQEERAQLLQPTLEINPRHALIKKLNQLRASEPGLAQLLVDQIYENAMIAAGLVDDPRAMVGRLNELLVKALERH
Experiment: Malachite green phosphate assay of TRAP1 ATPase activity
Format: biochemical
Stated conditions: read-out: Malachite Green Fluor DRC: Mean Emax
Measure: Emax

COc1ccc(NC(=O)c2cnc[nH]2)cc1S(=O)(=O)N(CCOCCOCCOCCN)c1ccc(Br)cc1 [Compound 546]	160 to 199%
CC1(C)CCN(S(=O)(=O)c2cccc(NC(=O)c3cnc(-c4ccccc4)[nH]3)c2)c2ccc(Cl)cc21 [Compound 534]	200 to 300%
COc1ccc(NC(=O)c2cnc[nH]2)cc1S(=O)(=O)Nc1ccc(C(C2N=N2)C(F)(F)F)cc1 (stereo not shown) [Compound 398]	123 to 159%

# query: Emax | item O=C(Nc1cccc(S(=O)(=O)Nc2ccc(Br)cc2)c1)c1ncco1 [Compound 302] | system: UniProt Q12931 160 to 199%

# query: Emax | item Cc1ncoc1C(=O)Nc1cccc(S(=O)(=O)N(c2ccc(Cl)cc2)C(C)C)c1 [Compound 551] | system: UniProt Q12931 160 to 199%

# query: Emax | item CC(C)c1ccc(NC(=O)c2cnc(-c3ccccc3)o2)cc1S(=O)(=O)Nc1ccc(Cl)cc1 [Compound 576] | system: UniProt Q12931 160 to 199%

# query: Emax | item COc1ccc(NC(=O)c2cnc(-c3ccc(Cl)cc3)[nH]2)cc1S(=O)(=O)Nc1ccc(Br)cc1 [Compound 415] | system: UniProt Q12931 123 to 159%

###

Listed below: EC50 values for each entry.
System: TRAP1 enzyme (Homo sapiens)
Experiment: Malachite green phosphate assay of TRAP1 ATPase activity
Assay type: biochemical
Stated conditions: TRAP1 ATPase activation, 150 nM Trap1, 20 μM ATP, geometric mean; read-out: Malachite Green Fluor DRC: GeoMean EC50

Suppose we examine the molecule O=C(Nc1ccc(OCCCCCCO)c(S(=O)(=O)Nc2ccc(Br)cc2)c1)c1cnc[nH]1 ; what EC50 value has been reported? 10 to 20 µM

Suppose we examine the molecule COc1ccc(NC(=O)c2cnc(-c3ccccc3)[nH]2)cc1S(=O)(=O)N(CCOCCOCCN)c1ccc(Br)cc1 ; what EC50 value has been reported? 20 to 100 µM

Suppose we examine the molecule COc1ccc(NC(=O)c2cnccc2C)cc1S(=O)(=O)Nc1c(C)cccc1C ; what EC50 value has been reported? 20 to 100 µM

Suppose we examine the molecule COc1ccc(NC(=O)c2ncc(-c3ccccc3)o2)cc1S(=O)(=O)Nc1c(C)cccc1C ; what EC50 value has been reported? < 10 µM

Suppose we examine the molecule COc1ccc(NC(=O)c2ncc(-c3ccccc3)o2)cc1S(=O)(=O)Nc1c(Cl)cccc1Cl ; what EC50 value has been reported? < 10 µM

Suppose we examine the molecule COc1ccc(NC(=O)c2ncc(-c3ccccc3)o2)cc1S(=O)(=O)Nc1ccc(Cl)cc1 ; what EC50 value has been reported? < 10 µM

Suppose we examine the molecule CN(c1ccc(Br)cc1)S(=O)(=O)c1cc(NC(=O)c2cnc[nH]2)ccc1OCCCCCC[P+](c1ccccc1)(c1ccccc1)c1ccccc1 ; what EC50 value has been reported? < 10 µM

###

System: TRAP1 enzyme (Homo sapiens, UniProt Q12931)
Experiment: ADP Glo assay of TRAP1 ATPase activity
Type: biochemical
Stated conditions: read-out: ADP GLO DRC: Mean Emax
Measure: Emax

COc1ccc(NC(=O)c2nn(C)c3c2CCC3)cc1S(=O)(=O)Nc1c(C)cccc1C [Compound 1010]	200 to 300%
CCOc1ccsc1C(=O)Nc1ccc(F)c(S(=O)(=O)Nc2ccc(Cl)cc2)c1 [Compound 765]	123 to 159%
COc1ccc(NC(=O)c2cc(C)nc3onc(C)c23)cc1S(=O)(=O)Nc1c(C)cccc1C [Compound 1226]	123 to 159%
COc1ccc(NC(=O)c2noc3c2CCCC3)cc1S(=O)(=O)Nc1c(C)cccc1C [Compound 1114]	200 to 300%
Cn1cnc2cc(C(=O)Nc3ccc(F)c(S(=O)(=O)Nc4ccc(Cl)cc4)c3)ccc2c1=O [Compound 1256]	123 to 159%
CCc1nccc(C)c1NS(=O)(=O)c1cc(NC(=O)c2ncc(-c3ccccc3)o2)ccc1OC [Compound 1697]	123 to 159%
COc1ccc(NC(=O)c2csc3c2C2CCN3CC2)cc1S(=O)(=O)Nc1c(C)cccc1C [Compound 1945]	160 to 199%
COc1cc(C#N)cc(C(=O)Nc2ccc(OC)c(S(=O)(=O)Nc3c(C)cccc3C)c2)c1 [Compound 1090]	160 to 199%

# query: Emax | item COc1ccc(NC(=O)c2ccc3nccnc3c2)cc1S(=O)(=O)Nc1c(C)cccc1C [Compound 1063] | system: TRAP1 enzyme (Homo sapiens, UniProt Q12931) > 300%

# query: Emax | item COc1ccc(NC(=O)c2n[nH]c3c2CCCC3)cc1S(=O)(=O)Nc1c(C)cccc1C [Compound 1235] | system: TRAP1 enzyme (Homo sapiens, UniProt Q12931) 200 to 300%

# query: Emax | item COc1ccc(NC(=O)c2cc3c(C)nn(C)c3s2)cc1S(=O)(=O)Nc1c(Cl)cccc1Cl [Compound 1375] | system: TRAP1 enzyme (Homo sapiens, UniProt Q12931) 160 to 199%

# query: Emax | item COc1ccc(NC(=O)c2ccccc2C2CC2)cc1S(=O)(=O)Nc1c(C)cccc1C [Compound 1028] | system: TRAP1 enzyme (Homo sapiens, UniProt Q12931) 160 to 199%

###

Listed below: Emax values for each entry.
System: TRAP1 enzyme (Homo sapiens, UniProt Q12931)
Experiment: ADP Glo assay of TRAP1 ATPase activity
Format: biochemical
Stated conditions: read-out: ADP GLO DRC: Mean Emax

Before answering, review these 5 worked examples.
COc1ccc(NC(=O)c2cnc3ccoc3c2)cc1S(=O)(=O)Nc1c(C)cccc1C	200 to 300%
COc1ccc(NC(=O)c2cccnc2-c2ccccc2C)cc1S(=O)(=O)Nc1c(C)cccc1C	160 to 199%
COc1ccc(NC(=O)c2cnn(Cc3ccccc3)c2)cc1S(=O)(=O)Nc1c(C)cccc1C	200 to 300%
COc1ccc(NC(=O)c2c(C(F)(F)F)ccnc2C)cc1S(=O)(=O)Nc1c(C)cccc1C	123 to 159%
COc1ccc(NC(=O)c2csc(-c3ccccc3)n2)cc1S(=O)(=O)N(CC(O)CO)c1ccc(Cl)cc1 (centres unmarked)	123 to 159%

# query: Emax | item O=C(Nc1ccc(F)c(S(=O)(=O)Nc2ccc(Cl)cc2)c1)c1cnccc1-c1ccccc1 | system: TRAP1 enzyme (Homo sapiens, UniProt Q12931) 160 to 199%

# query: Emax | item COc1ccc(NC(=O)c2cc3ccncc3s2)cc1S(=O)(=O)Nc1c(C)cccc1C | system: TRAP1 enzyme (Homo sapiens, UniProt Q12931) 200 to 300%

# query: Emax | item COc1ccc(NC(=O)c2cccc(-c3cccnc3)c2)cc1S(=O)(=O)Nc1c(C)cccc1C | system: TRAP1 enzyme (Homo sapiens, UniProt Q12931) 200 to 300%
